test.summary: clinical
condition.info: human, in vivo, po
measure.name: Tmax

compound | measured.value
Cn1cnc2c(F)c(Nc3ccc(Br)cc3Cl)c(C(=O)NOCCO)cc21 [selumetinib] | ~1.7 h

###

test.summary: clinical
condition.info: human, in vivo

mol.smiles | measurement.unit | half-life
Cn1cnc2c(F)c(Nc3ccc(Br)cc3Cl)c(C(=O)NOCCO)cc21 | h | 4.3
